STUDY SYSTEM: Xanthine dehydrogenase/oxidase (Bos taurus, UniProt P80457)
Sequence (P80457 whole entry): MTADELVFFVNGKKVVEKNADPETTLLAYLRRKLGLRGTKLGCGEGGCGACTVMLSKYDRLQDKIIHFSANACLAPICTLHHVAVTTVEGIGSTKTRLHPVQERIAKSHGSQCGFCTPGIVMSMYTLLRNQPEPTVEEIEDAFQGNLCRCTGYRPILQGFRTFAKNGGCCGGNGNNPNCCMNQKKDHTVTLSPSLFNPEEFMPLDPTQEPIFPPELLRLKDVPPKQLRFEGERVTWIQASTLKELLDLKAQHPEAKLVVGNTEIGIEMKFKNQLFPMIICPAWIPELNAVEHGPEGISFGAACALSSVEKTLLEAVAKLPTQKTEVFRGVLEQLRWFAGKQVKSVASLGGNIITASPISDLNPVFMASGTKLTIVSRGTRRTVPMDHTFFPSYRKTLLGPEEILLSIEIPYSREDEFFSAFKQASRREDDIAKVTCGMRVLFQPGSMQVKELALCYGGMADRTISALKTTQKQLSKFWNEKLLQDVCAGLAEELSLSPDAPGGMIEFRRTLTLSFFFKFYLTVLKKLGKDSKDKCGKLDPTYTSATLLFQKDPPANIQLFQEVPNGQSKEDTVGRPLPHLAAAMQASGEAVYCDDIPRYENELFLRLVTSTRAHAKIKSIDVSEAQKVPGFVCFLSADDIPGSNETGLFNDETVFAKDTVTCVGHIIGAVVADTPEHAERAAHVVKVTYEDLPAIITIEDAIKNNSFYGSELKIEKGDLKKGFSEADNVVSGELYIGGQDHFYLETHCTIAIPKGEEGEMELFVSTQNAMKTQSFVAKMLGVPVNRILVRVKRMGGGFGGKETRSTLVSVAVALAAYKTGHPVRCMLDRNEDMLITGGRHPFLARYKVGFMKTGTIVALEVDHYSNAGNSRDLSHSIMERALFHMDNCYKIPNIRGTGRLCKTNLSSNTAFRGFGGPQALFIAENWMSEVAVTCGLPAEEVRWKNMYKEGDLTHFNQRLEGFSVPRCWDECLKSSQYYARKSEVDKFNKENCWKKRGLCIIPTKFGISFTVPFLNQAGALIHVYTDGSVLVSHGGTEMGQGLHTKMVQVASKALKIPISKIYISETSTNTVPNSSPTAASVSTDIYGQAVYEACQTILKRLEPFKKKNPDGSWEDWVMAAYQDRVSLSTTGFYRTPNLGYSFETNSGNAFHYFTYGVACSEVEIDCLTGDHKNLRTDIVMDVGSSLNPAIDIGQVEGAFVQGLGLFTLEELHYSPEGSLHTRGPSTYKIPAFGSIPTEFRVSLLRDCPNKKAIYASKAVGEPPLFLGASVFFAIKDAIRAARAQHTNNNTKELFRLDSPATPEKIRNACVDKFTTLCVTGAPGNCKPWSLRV
ASSAY NOTES: Inhibition of bovine xanthine oxidase assessed as reduction of cytochrome c
Set-up: concentration or dose not given beside the values
CONDITION INFO: cattle
The entries below come with measured Activity values attached.
Answer with a number only, understood to be in nM/s.

Here is how some compounds turned out for Activity.
{"columns": ["COMPOUND", "U", "Activity"],
 "data": [
  ["COc1cc(C2Oc3cc([C@H]4Oc5cc(O)cc(O)c5C(=O)[C@@H]4O)ccc3OC2CO)ccc1O (stereo not given in full)", "nM/s", 150],
  ["Oc1ncnc2[nH]ncc12", "nM/s", 140],
  ["O=c1cc(-c2ccc(O)c(O)c2)oc2cc(O)cc(O)c12", "nM/s", 82],
  ["O=c1c(O)c(-c2ccc(O)c(O)c2)oc2cc(O)cc(O)c12", "nM/s", 100]
]}

Lab note: next compound to report on.
stdin: Provide only the value of recorded Activity for COc1cc(/C=C/C(=O)CC(=O)/C=C/c2ccc(O)c(OC)c2)ccc1O
stdout: 150

Hello, the source for this data is ChEMBL document CHEMBL1151898, in case you need it.
